- Test system: NCI-H460 lung
- Experiment: NCI-60 one-dose screen, 48 h
- Measurement Conditions: 10 µM unless noted
The panel holds about 83,000 compounds, 20% with a hit somewhere; the sample as a whole holds those more often. Calls of active or inactive are those of the source. How the source made its calls: active means growth percent below 10; inactive means the rest.
Hi! Could you answer with just one of these? true (active), false (inactive)

Solved entries (count: 8):
C/C=C/C=N/NC(=S)Nc1ccccc1 = false
O=C(N/N=C/c1ccc(Cl)cc1)c1cc(-c2cc3ccccc3o2)nn1-c1ccccc1 = false
COc1ccc2c(c1OC)C(=O)O[C@@H]2[C@H]1c2c(c(C#CC#Cc3ccc(F)c(F)c3)c3c(c2OC)OCO3)CCN1C = false
Cc1ccc(C(=O)Nc2ccc(CN3CCN(C)CC3)c(C(F)(F)F)c2)cc1C#Cc1cnc2cccnn12 = true
COc1ccc2c(CCc3ccc(Cl)cc3)c3[n+](cc2c1OC)CCc1cc2c(cc1-3)OCO2 = false
CCN1CCN(CCCN(C[C@H]2Cc3ccccc3CN2)[C@H]2CCCc3cccnc32)CC1 = false
COC(=O)[C@@H](OC)[C@@H]1Cc2cc3cc(OC4CC(OC5CC(O)C(O)C(C)O5)C(O)C(C)O4)c(C)c(O)c3c(O)c2C(=O)[C@H]1OC1CC(OC2CC(OC3CC(C)(O)C(O)C(C)O3)C(O)C(C)O2)C(O)C(C)O1 (some centres not stated) = true
N#Cc1c(-c2ccc(C(F)(F)F)cc2)c(F)c(NCCC2CCC(O)C2)n2c1nc1ccccc12 (configuration not stated) = false

For `C=C1C(=O)O[C@H]2[C@H]1CC/C(CNC(=O)c1cc3cc(OC)ccc3[nH]1)=C\CC[C@@]1(C)O[C@@H]21` , what call appears in the results of this test?
false

For `Cc1c(Cn2c(C)nc3c(C(=O)O)cc(N4CCOCC4)cc32)cccc1C(F)(F)F` , what call appears in the results of this test?
false

For `CC(=O)Oc1ccccc1C(=O)N=C1[Se]CCN1C(=O)c1ccccc1OC(C)=O` , what call appears in the results of this test?
true

For NC(=O)N1N=C(c2ccc(Cl)cc2)CC1c1cn(-c2ccccc2)nc1-c1ccc(Cl)cc1 (configuration not stated) , what call appears in the results of this test?
false

For `CN[C@@H]1C[C@H]2O[C@@](C)([C@@H]1OC)n1c3ccccc3c3c4c(c5c6ccccc6n2c5c31)C(=O)N[C@H]4O` , what call appears in the results of this test?
true

For `O=C(Nc1ccc(Nc2ncnc3sc4c(c23)CCOC4)cc1)Nc1ccc(Cl)c(C(F)(F)F)c1` , what call appears in the results of this test?
false

For `Cc1ccc(-c2cc3c(SCC(=O)Nc4cc(C(F)(F)F)ccc4Cl)nccn3n2)cc1` , what call appears in the results of this test?
false
